B1: HDV Ribozyme (parent)
chain: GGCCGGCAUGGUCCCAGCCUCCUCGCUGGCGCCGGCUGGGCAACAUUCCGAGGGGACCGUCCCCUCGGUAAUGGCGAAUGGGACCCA

Variants of: B1
PROTOCOL_DETAILS: self-cleavage, relative activity (ratio to wild type); higher = more cleavage; co-transcriptional
MEASURED_ATTRIBUTE: self-cleavage
Answer as a number with no unit attached.

As a guide, the following entries are already answered.
MUTANT_CODE	self-cleavage
G50C G68C	0.249
C36G A45G	0.185
G2A G11A	0.0786
C66G U69C	0.898
A42C A56C	0.356

Consider the variant G29C G67A and give its measured self-cleavage.
0.0739

// lookup self-cleavage for G29C C64U
0.0594
